These data points were gathered from paper PMC4399878.

Exercise: state measured Kd for each of the binders provided.
Molecular target: T1, SgrAI wild type (UniProt Q9F6L0 1-339)
T1 sequence: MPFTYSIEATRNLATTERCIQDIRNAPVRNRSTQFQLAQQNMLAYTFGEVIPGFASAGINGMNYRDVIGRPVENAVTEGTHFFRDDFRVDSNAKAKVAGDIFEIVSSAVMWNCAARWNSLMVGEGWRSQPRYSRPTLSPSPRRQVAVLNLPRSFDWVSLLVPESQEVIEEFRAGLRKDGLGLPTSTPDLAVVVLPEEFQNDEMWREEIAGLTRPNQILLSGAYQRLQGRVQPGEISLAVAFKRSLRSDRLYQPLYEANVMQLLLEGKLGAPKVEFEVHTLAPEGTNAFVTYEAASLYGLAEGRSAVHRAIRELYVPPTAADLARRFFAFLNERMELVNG
Assay: fluorescence anisotropy; 10 mM Ca2+; 20 mM Tris-HOAc pH 8.0 (RT), 50 mM KOAc, 10 mM Ca(OAc)2 (or Mg(OAc)2), 1 mM DTT, 4 C for anisotropy and gel run; 10% glycerol for EMSA and R131A/R134A, none for wild type with 40-mers
Details: protein: recombinant; tags: none (untagged wild type; a C-terminal 6xHis version was also made); chain copies: 2; label: 5' fluorescein on top strand
Response body: numeric value in nM, unit text excluded.

Qu. Bench note: what Kd did 40-2B (dsDNA) DNA 1: GATGCGTGGGTCTTCACACCGGTCGTCTGCTCAAAATGAG DNA 2: CTCATTTTGAGCAGACGACCGGTGTGAAGACCCACGCATC show?
Ans. 17

Qu. State the recorded Kd for this entry: 40-2A (dsDNA) DNA 1: GATGCGTGGGTCTTCACACCGGGGGTCTGCTCAAAATGAG DNA 2: CTCATTTTGAGCAGACCCCCGGTGTGAAGACCCACGCATC
Ans. 27
